Data provenance is PubChem BioAssay (NCI).

Tested on: SK-MEL-28 melanoma
Experiment: NCI-60 one-dose screen, 48 h
Details: 10 µM unless noted
Method: Growth inhibition of the SK-MEL-28 human tumor cell line is measured as a screen for anti-cancer activity. Cells are grown in 96 well plates and exposed to the test compound for 48 hours. Compounds are tested at a single concentration, which is 10^-5 M for most compounds. The reported endpoint is percent growth (GI% or GIPRCNT), where numbers from 0 - 100% represent growth inhibition, and numbers from -100% - 0 represent cell death. For example, a value of 40 represents 60% growth inhibition. […]
This is part of a sample that, as a whole, favours compounds with a hit. Of some 83,000 tested, about 20% had one in any assay. Active and inactive are the calls of the source. The calls were made as follows: active = growth percent below 10; inactive = the rest.
Answer with one of the outcomes given here: class 1 = active, class 0 = inactive

Query block: Look up the recorded call for O=C(COc1cccc2cccnc12)Nc1ccc(C(=O)/C=C/c2ccc(Cl)cc2)cc1 in this test.
Result block: class 0

Query block: Look up the recorded call for O=C(CCCCCCN1CC(=O)N2[C@@H](c3ccc(Cl)c(F)c3)c3[nH]c4ccccc4c3C[C@H]2C1=O)NO in this test.
Result block: class 0

Query block: Look up the recorded call for COc1ccc2c(ccn2C(=O)N2c3ccccc3Sc3ccccc32)c1 in this test.
Result block: class 0

Query block: Look up the recorded call for CS(=O)(=O)c1ccc2c(c1)c1c(n2Cc2ccc(Cl)cc2)CCCC1 in this test.
Result block: class 0

Query block: Look up the recorded call for O=c1oc2ccc(-c3ccc(F)cc3F)cc2c(=O)n1-c1cccc(C(F)(F)F)c1 in this test.
Result block: class 0

Query block: Look up the recorded call for COc1cc(NC2=C(Cl)C(=O)c3nc(C)ccc3C2=O)cc(OC)c1 in this test.
Result block: class 1

Query block: Look up the recorded call for NS(=O)(=O)c1ccc(Nc2nc(N/N=C/c3ccc(F)cc3)nc(Nc3ccccc3)n2)cc1 in this test.
Result block: class 0

Query block: Look up the recorded call for COc1ccc(NS(=O)(=O)c2ccc(-c3cnc(C4CC4)o3)cc2)cc1Cl in this test.
Result block: class 0

Query block: Look up the recorded call for COc1ccc(-c2nc(SCCC(C)C)nc(N/N=C\c3ccc(O)cc3)c2C#N)cc1 in this test.
Result block: class 0
